# Assayed target: UniProt:P9WPA3
# Sequence (P9WPA3 whole entry): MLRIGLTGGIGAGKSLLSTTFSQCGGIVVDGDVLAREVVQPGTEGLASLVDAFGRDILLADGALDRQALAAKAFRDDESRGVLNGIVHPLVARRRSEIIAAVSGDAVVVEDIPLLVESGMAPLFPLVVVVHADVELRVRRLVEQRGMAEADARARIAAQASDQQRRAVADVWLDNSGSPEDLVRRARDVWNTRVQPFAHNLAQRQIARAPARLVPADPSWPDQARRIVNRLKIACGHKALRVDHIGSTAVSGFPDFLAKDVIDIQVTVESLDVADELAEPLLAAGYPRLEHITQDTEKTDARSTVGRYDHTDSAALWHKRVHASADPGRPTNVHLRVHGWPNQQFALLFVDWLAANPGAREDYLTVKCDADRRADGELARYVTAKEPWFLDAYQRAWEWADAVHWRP
pKi: −log10 of the molar value.
Measure name: pKi

1. Nc1ccn([C@@H]2O[C@H](COP(=O)(O)OP(=O)(O)OP(=O)(O)O)[C@@H](O)[C@H]2O)c(=O)n1 [CTP]
4.47
